Target: T1, cynomolgus TIM-3 on isolated cyno CD14+ monocytes (cynomolgus monkey, UniProt A0A2K5U3G7 22-294)
T1 construct: whole, on cells; also called cyno monocytes expressing TIM-3
T1 sequence: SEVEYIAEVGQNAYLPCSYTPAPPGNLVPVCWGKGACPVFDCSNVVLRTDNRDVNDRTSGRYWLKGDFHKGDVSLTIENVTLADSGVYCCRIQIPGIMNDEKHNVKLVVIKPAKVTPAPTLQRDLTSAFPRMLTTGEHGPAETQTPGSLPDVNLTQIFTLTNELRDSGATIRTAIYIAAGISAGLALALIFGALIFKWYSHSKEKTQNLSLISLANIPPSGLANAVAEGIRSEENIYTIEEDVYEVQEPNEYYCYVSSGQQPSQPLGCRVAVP
Experiment: FACS, cyno CD14+ monocytes, cyno1 (16719M)
assay-metric: Specific Binding [MFI]

// below: answered binders
| binder | assay-metric | measurement |
| --- | --- | --- |
| anti-TIM3 antibody Tim3_0030 (antibody, V domains shown, Mouse monoclonal from hybridoma) VH: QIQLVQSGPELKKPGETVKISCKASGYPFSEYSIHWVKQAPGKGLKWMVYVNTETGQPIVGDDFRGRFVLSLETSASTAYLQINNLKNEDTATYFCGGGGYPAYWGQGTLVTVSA VL: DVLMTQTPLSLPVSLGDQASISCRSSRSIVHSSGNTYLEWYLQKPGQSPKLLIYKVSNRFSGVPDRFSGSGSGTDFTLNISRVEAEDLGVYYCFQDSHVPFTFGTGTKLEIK | Specific Binding [MFI] | 119 MFI |
| anti-TIM3 antibody Tim3_0026 (antibody, V domains shown, Mouse monoclonal from hybridoma) VH: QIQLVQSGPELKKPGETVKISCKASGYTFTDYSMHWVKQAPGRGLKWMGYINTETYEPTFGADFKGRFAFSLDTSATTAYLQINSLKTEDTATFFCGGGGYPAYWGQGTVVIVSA VL: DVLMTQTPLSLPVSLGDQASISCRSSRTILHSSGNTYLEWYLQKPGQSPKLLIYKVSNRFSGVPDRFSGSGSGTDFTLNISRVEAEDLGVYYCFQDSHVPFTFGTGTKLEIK | Specific Binding [MFI] | 137 MFI |
| anti-TIM3 antibody Tim3_0033 (antibody, V domains shown, Mouse monoclonal from hybridoma) VH: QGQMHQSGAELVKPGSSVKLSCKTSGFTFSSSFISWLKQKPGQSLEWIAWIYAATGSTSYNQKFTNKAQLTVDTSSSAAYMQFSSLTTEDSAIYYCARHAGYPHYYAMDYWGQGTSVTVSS VL: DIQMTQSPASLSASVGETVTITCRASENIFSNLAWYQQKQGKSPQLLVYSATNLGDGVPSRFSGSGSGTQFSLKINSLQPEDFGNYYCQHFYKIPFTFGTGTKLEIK | Specific Binding [MFI] | 71 MFI |
| anti-TIM3 antibody Tim3_0016 (antibody, V domains shown, Mouse monoclonal from hybridoma; also called clone 0016; Tim3_0016-A488) VH: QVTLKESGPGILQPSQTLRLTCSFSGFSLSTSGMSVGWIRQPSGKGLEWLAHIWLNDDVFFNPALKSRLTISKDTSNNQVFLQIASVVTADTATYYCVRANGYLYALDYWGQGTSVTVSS VL: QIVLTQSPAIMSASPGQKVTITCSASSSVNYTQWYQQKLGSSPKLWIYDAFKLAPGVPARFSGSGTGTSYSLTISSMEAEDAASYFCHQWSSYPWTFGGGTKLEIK | Specific Binding [MFI] | 157 MFI |
| anti-TIM3 antibody Tim3_0016 variant (Tim3_0018) (antibody, V domains shown, Mouse monoclonal from hybridoma; also called TIM3-0016 variant (0018); Tim3_0016 variant 0018-A488) VH: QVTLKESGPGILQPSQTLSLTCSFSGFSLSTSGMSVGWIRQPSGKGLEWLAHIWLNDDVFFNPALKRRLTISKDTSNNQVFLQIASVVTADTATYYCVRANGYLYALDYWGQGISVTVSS VL: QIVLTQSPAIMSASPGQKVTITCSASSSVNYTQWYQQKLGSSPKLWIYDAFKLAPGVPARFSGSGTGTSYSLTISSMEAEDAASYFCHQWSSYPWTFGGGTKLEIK | Specific Binding [MFI] | 301 MFI |

Specify measured Specific Binding [MFI] for anti-TIM3 antibody Tim3_0038 (antibody, V domains shown, Mouse monoclonal from hybridoma) VH: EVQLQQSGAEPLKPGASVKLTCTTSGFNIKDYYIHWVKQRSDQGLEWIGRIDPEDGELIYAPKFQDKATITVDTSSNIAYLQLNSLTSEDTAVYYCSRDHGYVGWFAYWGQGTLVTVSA VL: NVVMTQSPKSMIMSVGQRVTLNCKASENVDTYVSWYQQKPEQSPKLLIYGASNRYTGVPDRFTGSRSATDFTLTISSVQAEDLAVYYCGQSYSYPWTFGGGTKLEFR .
97 MFI
